B1: tRNA (parent)
chain: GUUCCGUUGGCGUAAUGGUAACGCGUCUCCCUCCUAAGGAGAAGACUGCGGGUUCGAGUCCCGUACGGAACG

# Variants of: B1
# protocol_summary: yeast fitness relative to wild type (ratio to wild type); higher = fitter; tRNA-Arg(CCU), competitive growth, 37 C, YPD
Variants at the floor of the assay were thinned out.
endpoint_name: yeast fitness

Solved entries:
| mutation_label | yeast fitness |
| --- | --- |
| U35A A43G U64C | ≤ 0.5 |
| C4U C24A U59G C62U A70G | ≤ 0.5 |
| U8G G10C | ≤ 0.5 |
| A37G U53C G67A | ≤ 0.5 |
| C11U A20G A36C C49G C61G C62G | ≤ 0.5 |

Provide the reported yeast fitness of each entry below, same order.
1. C27G A40C C55G
2. G10C U47G C55U A70G
3. U16A C31A A40C G52C
4. U2A U8A C11G C30G G48A
5. U3C A36G G39C C55U C66U
6. C11U C22A A40U C46U C61U
7. C4U C24A C62U A69U

Solution:
["≤ 0.5", "≤ 0.5", "≤ 0.5", "≤ 0.5", "≤ 0.5", "≤ 0.5", "≤ 0.5"]

Provide the reported yeast fitness of each entry below, same order.
1. C22U C29U A40C
2. A20G G23C A69C
3. G17A C24U C31G A65U
4. U3A C27U C60A
5. U35C A37C G39A
6. U26A C46G C61U
7. U19C C60A

Solution:
[0.667, "≤ 0.5", "≤ 0.5", "≤ 0.5", "≤ 0.5", 0.699, 0.547]

Provide the reported yeast fitness of each entry below, same order.
1. C24G G44A C46U U53C
2. C5U C11A C24A U28G
3. A14G C55G A57C

Solution:
≤ 0.5
0.63
0.598

Provide the reported yeast fitness of each entry below, same order.
1. C22G C30G C55A
2. A20U A40U G44C U53G
3. C4A A45C G52A G67U
4. A43U C61A
5. G9C C24A A45G C46G
6. U7G U28C G41C G58C
7. U2G C33U C34G U59A
8. G25A C30A C34A C49A C62G C66U A70G

Solution:
1. ≤ 0.5
2. ≤ 0.5
3. 0.577
4. 0.764
5. 0.597
6. ≤ 0.5
7. ≤ 0.5
8. 0.712
